# Test system: E. coli wild-type GFP strain growth, fluorescence, 24 h
# EXPERIMENT DESCRIPTION: wild-type E. coli growth inhibition versus H69 humanized strain – H69 mutant RFP, wild-type GFP, cherry-pick, dose response (AID 977621);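 further: wild-type GFP and H69 mutant RFP strains grown together 50/50 in each well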
Inconclusive results are not listed. The source made the active and inactive calls.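 How the source made its calls: active means Wild-type ribosome reporter drop at least double the humanized mutant ribosome reporter drop, growth loss under a set limit; inconclusive means no clear call, values can overlap the other calls; inactive means the rest.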
MEASUREMENT NAME: AC50

| COMPOUND | AC50 |
| --- | --- |
| Nc1nn(-c2ccccc2)c2ccc([N+](=O)[O-])cc12 | > 100 µM (inactive) |

Q: Query the reported AC50 for E. coli wild-type GFP strain growth, fluorescence, 24 h; item: CCN(CC)CCn1c(SCC(=O)Nc2cccc(OC)c2)nc2c(sc3ccccc32)c1=O
Ans: > 100 µM (inactive)

Q: Query the reported AC50 for E. coli wild-type GFP strain growth, fluorescence, 24 h; item: CCCCC(=O)N1CCN(c2nc3ccc(Br)cc3s2)CC1
Ans: > 100 µM (inactive)

Q: Query the reported AC50 for E. coli wild-type GFP strain growth, fluorescence, 24 h; item: CCN(CC)CCN(C(=O)c1ccc2c(c1)OCCO2)c1nc2cc(C)cc(C)c2s1
Ans: > 100 µM (inactive)
